// GI50 lookup, one value per entry
System: WM266.4 melanoma cells
methodNotes: SRB Cell Proliferation Assay (SRB GI50)
Type: cell-based
conditionDetails: Homo sapiens, WM 266-4, 144 h, 6 days growth

Study these solved cases before continuing.
| compound | assayResult |
| --- | --- |
| CC(C)(C)c1cc(NC(=O)Nc2ccc(Oc3ccnc4[nH]c(=O)cnc34)cc2F)n(CC2CCC2)n1 [AA-099] | 1000 to 10000 nM |
| O=C(Nc1ccc(Oc2ccnc3[nH]c(=O)c(=O)[nH]c23)cc1F)Nc1cc(C(F)(F)F)ccc1F [AA-072] | 1000 to 10000 nM |
| COc1ccc(-n2nc(C(C)(C)C)cc2NC(=O)Nc2ccc(Oc3ccnc4[nH]c(=O)cnc34)cc2SC)cn1 [AA-063] | < 1000 nM |

Entry O=C(Nc1cncc(C(F)(F)F)c1)Nc1ccc(Oc2ccnc3[nH]c(=O)cnc23)cc1F [AA-069] , GI50 reported as 1000 to 10000 nM

Entry CSc1cc(Oc2ccnc3[nH]c(=O)cnc23)ccc1NC(=O)Nc1cc(C(C)(C)C)nn1-c1ccccc1 [AA-067] , GI50 reported as < 1000 nM

Entry Cc1ccc(-n2nc(C(C)(C)C)cc2NC(=O)Nc2cccc(Oc3ccnc4[nH]c(=O)c(C)nc34)c2)cc1 [AA-078] , GI50 reported as < 1000 nM

Entry CSc1cc(Oc2ccnc3[nH]c(=O)c(C)nc23)ccc1NC(=O)Nc1cc(C(F)(F)F)ccc1F [AA-060] , GI50 reported as < 1000 nM

Entry CC(C)(C)c1cc(NC(=O)Nc2ccc(Oc3ccnc4ncc(=O)[nH]c34)cc2F)n(-c2ccccc2)n1 [AA-089] , GI50 reported as < 1000 nM

----------
// pIC50 lookup, one value per entry
measuredTarget: B-RAF (Homo sapiens, UniProt P15056, V600E)
Sequence (P15056 whole entry V600E): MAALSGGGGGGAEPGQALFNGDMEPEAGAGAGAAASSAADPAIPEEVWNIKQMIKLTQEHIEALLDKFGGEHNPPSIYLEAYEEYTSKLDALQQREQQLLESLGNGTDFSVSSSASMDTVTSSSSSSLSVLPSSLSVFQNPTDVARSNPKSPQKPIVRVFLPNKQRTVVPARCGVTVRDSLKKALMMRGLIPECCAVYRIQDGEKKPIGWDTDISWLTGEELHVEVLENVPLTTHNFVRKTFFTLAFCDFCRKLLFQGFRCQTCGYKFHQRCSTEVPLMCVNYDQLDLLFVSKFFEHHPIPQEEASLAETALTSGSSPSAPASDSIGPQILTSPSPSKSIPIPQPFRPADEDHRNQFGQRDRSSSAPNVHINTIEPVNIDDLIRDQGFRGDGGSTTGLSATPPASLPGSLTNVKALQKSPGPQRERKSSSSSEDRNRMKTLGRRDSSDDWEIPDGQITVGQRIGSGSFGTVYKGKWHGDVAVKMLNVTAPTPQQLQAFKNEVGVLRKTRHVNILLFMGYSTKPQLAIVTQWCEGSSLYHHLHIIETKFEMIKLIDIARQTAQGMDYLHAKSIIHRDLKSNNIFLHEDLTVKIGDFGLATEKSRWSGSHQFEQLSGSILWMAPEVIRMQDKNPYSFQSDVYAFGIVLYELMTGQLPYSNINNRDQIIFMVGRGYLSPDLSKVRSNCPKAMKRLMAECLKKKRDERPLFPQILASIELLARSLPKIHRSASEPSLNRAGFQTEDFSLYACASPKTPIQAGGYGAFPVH
methodNotes: DELFIA Kinase Assay
conditionDetails: 100 μM ATP, GST-MEK substrate
pIC50: −log10 of the molar value.

| smiles | measuredTarget | assayResult |
| --- | --- | --- |
| CSc1cc(Oc2ccnc3[nH]c(=O)cnc23)ccc1NC(=O)Nc1cc(C(C)(C)C)nn1-c1ccc(C)cc1 | B-RAF (Homo sapiens, UniProt P15056, V600E) | > 7.00 |
| COc1ccc(-n2nc(C(C)(C)C)cc2NC(=O)Nc2ccc(Oc3ccnc4[nH]c(=O)c(C)nc34)cc2SC)cn1 | B-RAF (Homo sapiens, UniProt P15056, V600E) | > 7.00 |
| Cc1nc2c(Oc3ccc(NC(=O)Nc4cc(C(C)(C)C)nn4-c4ccccc4)c4ccccc34)ccnc2[nH]c1=O | B-RAF (Homo sapiens, UniProt P15056, V600E) | > 7.00 |
| CC(C)(C)c1cc(NC(=O)Nc2ccc(Oc3ccnc4[nH]c(=O)c(=O)[nH]c34)cc2F)n(-c2ccc(S(C)(=O)=O)cc2)n1 | B-RAF (Homo sapiens, UniProt P15056, V600E) | 6.00 to 7.00 |
| Nc1nc2c(Oc3ccc(NC(=O)Nc4cc(C(F)(F)F)ccc4F)c(F)c3)ccnc2[nH]c1=O | B-RAF (Homo sapiens, UniProt P15056, V600E) | > 7.00 |

Entry CSc1cc(Oc2ccnc3[nH]c(=O)cnc23)ccc1NC(=O)Nc1ccc(Cl)c(C(F)(F)F)c1 , pIC50 reported as > 7.00

Entry CC(C)(C)c1cc(NC(=O)Nc2ccc(Oc3ccnc4[nH]c(=O)cnc34)cc2F)n(-c2ccccc2)n1 , pIC50 reported as > 7.00
